- target_system: cyno ST2L (cyno)
- measurement_notes: affinity table; method not stated

binder	Kd (pM)
STLM219 (antibody, from another filing, V domains shown) VH: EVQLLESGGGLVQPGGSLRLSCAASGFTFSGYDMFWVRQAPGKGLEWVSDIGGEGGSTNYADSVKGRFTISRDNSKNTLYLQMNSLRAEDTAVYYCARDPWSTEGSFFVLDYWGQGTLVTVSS VL: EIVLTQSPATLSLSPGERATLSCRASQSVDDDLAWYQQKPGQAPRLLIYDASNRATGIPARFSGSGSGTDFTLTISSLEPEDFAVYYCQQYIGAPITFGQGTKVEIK	22
STLM124 (antibody, from another filing, V domains shown) VH: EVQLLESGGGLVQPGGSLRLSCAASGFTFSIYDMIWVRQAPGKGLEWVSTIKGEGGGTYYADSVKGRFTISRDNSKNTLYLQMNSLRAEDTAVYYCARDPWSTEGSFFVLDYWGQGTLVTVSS VL: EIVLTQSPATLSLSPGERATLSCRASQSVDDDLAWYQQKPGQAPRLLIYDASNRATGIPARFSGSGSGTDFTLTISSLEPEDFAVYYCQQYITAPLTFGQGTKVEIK	30
STLM107 (antibody, from another filing, V domains shown) VH: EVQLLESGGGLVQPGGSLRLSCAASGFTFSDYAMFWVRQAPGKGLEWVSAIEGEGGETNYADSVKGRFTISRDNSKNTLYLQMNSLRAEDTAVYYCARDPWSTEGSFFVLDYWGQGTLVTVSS VL: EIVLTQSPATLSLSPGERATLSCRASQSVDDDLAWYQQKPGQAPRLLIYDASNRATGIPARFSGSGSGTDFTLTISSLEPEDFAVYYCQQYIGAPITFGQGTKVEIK	7
STLM215 (antibody, from another filing, V domains shown) VH: EVQLLESGGGLVQPGGSLRLSCAASGFTFSSYDMFWVRQAPGKGLEWVSAIAGEGGRTYYADSVKGRFTISRDNSKNTLYLQMNSLRAEDTAVYYCARDPWSTEGSFFVLDYWGQGTLVTVSS VL: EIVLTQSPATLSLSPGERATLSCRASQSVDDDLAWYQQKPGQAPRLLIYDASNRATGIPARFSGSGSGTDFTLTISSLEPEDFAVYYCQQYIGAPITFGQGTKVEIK	10
STLM230 (antibody, from another filing, V domains shown) VH: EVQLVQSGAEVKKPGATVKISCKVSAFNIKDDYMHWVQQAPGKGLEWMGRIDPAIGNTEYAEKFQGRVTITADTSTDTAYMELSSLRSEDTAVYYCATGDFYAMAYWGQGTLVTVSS VL: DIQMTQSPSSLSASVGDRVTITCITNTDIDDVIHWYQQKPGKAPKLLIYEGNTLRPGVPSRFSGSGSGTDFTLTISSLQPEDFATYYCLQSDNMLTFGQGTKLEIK	144

Reference source for all entries: patent US20190202907A1
